Assay: Cycloheximide Counterscreen for Small Molecule Inhibitors of Shiga Toxin; also: read at 38.3 µM for the half of the compounds with a filed dose; 0% is about no effect
Details: cell reporter, cycloheximide protein synthesis inhibition counterscreen; stronger effect = higher value
Hit rate of the full screen: of about 300,000 compounds, about 37,000 (12%) were called active. The sample as a whole holds a higher share of actives than the screen did.
Observable: max response (%)
API: value field is a number in %; no unit string.

Supply max response value. Item: CCOC(=O)c1csc(CCNC(=O)c2oc3c(Cl)cc(C)cc3c2C)n1 29.8

Supply max response value. Item: CSc1ncc(C(=O)Nc2ccc(C)cc2C)c(C)n1 2.97

Supply max response value. Item: O=C(CNC(=O)[C@@H]1Cc2ccccc2CN1)NC1CCCCC1 1.46

Supply max response value. Item: Cc1ccccc1C(=O)NC(=S)NC1CC1 19.1

Supply max response value. Item: COc1ccc(CNc2nccs2)cc1 15.6

Supply max response value. Item: Cc1ccccc1-n1cc(CNC(=O)C2CCC(=O)N(C3CC3)C2)cn1 (stereo not given) -1.75

Supply max response value. Item: Cc1[nH]n(-c2ccccc2)c(=O)c1/C=N/NC(=O)c1ccoc1C 55

Supply max response value. Item: O=C(O)c1ccccc1NC(=O)c1ccccc1-c1ccccc1C(=O)O 1.58

Supply max response value. Item: O=C(NC(=S)Nc1ccccc1C(=O)O)c1ccc(-c2ccc(Br)cc2)o1 45.5

Supply max response value. Item: CC(C(=O)c1ccc(-c2ccccc2)cc1)[n+]1cccc(Br)c1 (stereo not given) -1.92

Supply max response value. Item: COc1cccc(OCC(=O)Nc2ccccc2C(N)=O)c1 34.1

Supply max response value. Item: Cc1ccc(C(=O)N2CC(=O)Nc3ccc(F)cc3C2c2ccc(F)cc2)cc1 (stereo not given) -2.84

Supply max response value. Item: O=C(Cn1cc(/C=N/NC(=O)c2cccc(C(F)(F)F)c2)c2ccccc21)Nc1ccc(F)cc1 2.04

Supply max response value. Item: Cc1cccc(OCC(=O)Nc2ccccc2F)c1 44.1

Supply max response value. Item: CCOc1cccc(NC(=O)C2CCCN(S(=O)(=O)c3ccc(OC)cc3)C2)c1 (stereo not given) 2.3

Supply max response value. Item: COc1cccc(CN(C)CC2CCCN(CCc3ccc(Cl)cc3)C2)c1OC (stereo not given) -1.16

Supply max response value. Item: O=C(NC(=S)Nc1cc(C(F)(F)F)ccc1N1CCOCC1)c1ccc(-c2cccc(Cl)c2)o1 12.2

Supply max response value. Item: Cc1cccc(OCCC(=O)Nc2ccccc2C(N)=O)c1 12.6

Supply max response value. Item: O=C(CCc1ccccc1)NNc1ccc(F)cc1 -0.637

Supply max response value. Item: COc1ccc(NC(=O)C2CCCN(S(=O)(=O)c3cccc4cccnc34)C2)cc1 (stereo not given) -0.912

Supply max response value. Item: COc1ccccc1C(=O)NC(=S)NC12CC3CC(CC(C3)C1)C2 13.4

Supply max response value. Item: O=C(NNC(=S)NC1CCCCC1)c1ccccc1Cl 5.48

Supply max response value. Item: O=C(C1CCN(S(=O)(=O)c2ccc(Br)s2)CC1)N1CCN(C2CCCCC2)CC1 3.94

Supply max response value. Item: Cc1ccc(F)c(NC(=O)CCOc2ccccc2C)c1 6.62

Supply max response value. Item: CCOC(=O)c1c(NC(C)=O)sc2c(O)c(Br)ccc12 -7.21

Supply max response value. Item: COc1ccc(OCc2cc(C(=O)NCC3(C)COC3)no2)c(Cl)c1 40.1

Supply max response value. Item: CCOC(=O)c1csc(NC(=O)c2ccc(S(=O)(=O)N3CCCC3)cc2)n1 -1.54

Supply max response value. Item: Cc1cccc(C(=O)N2CCCC(Nc3ccc(C(C)C)cc3)C2)n1 (stereo not given) 17.8

Supply max response value. Item: Cc1[nH]n(-c2ccc(Cl)cc2)c(=O)c1/C=N/n1c(C)nc2ccccc2c1=O -2.58

Supply max response value. Item: Cc1ccc(-n2[nH]c(C)c(/C=N/NC(=O)c3cccc([N+](=O)[O-])c3)c2=O)cc1C 34.1

Supply max response value. Item: O=C1C=C(c2ccc(Cl)cc2)C(=O)N1Nc1ccccc1 -6.32

Supply max response value. Item: CCCOC(=O)Nc1ccccc1C(N)=O -2.21

Supply max response value. Item: COc1cccc(/C=N/NC(=O)c2cccc([N+](=O)[O-])c2)c1OS(=O)(=O)c1ccc(C)cc1 1.94

Supply max response value. Item: O=C(NC1Cc2ccccc2C1)c1cc(COc2cccc(C(F)(F)F)c2)on1 -3.57

Supply max response value. Item: CC(C)[C@H](NC(=O)N1CCn2c1nc1ccccc12)C(=O)NCCc1ccccc1 11.9
